Molecular target: T1, B Lymphocyte Stimulator, soluble form (human) (human, UniProt Q9Y275 134-285, biotinylated with NHS-biotin where used as biotinylated B Lymphocyte Stimulator)
T1 construct: Coated on plastic, captured on streptavidin plates, amine-coupled to a CM5 chip or free in solution, depending on the assay; also called BLyS; immobilized B Lymphocyte Stimulator
Assay: phage display panning on soluble BLyS
Excerpt: In a specific embodiment, antibodies of the present invention cross react with APRIL (SEQ ID NO:3239; GenBank Accession No. AF046888; J. Exp. Med. 188(6):1185-1190; PCT International Publication WO97/33902). […] These scFvs were isolated by panning a phage scFv library comprising VH and VL domains obtained from human bone marrow B cells (BM library). Phage from the BM phage library were first selected for binding to soluble B Lymphocyte Stimulator (amino acids 134-285 of SEQ ID NO:3228). […]

# binder, binding result
rows = [
    ("BAB2019 (scFv) scFv: EVQLVQSGAEVKKPGASVKVSCKASGYTFTSSGISWVRQAPGQGLEWMGWINGYNGNTKYAQKFQGRVTMTTDTSTTTAYMELRSLRSDDTAVYYCARDSYDILTDYYNMIMDVWGQGTLVTVSSGGGGSGGGGSGGGGSQSVLTQPASVSGSPGQSITISCTGTSSDVGGYNYVSWYQQHPGKAPKLMIYEGSKRPSGVSNRFSGSKSGNTASLTISGLQAEDEADYYCSSYTTRSTRVFGGGTKLTVLG", "binds"),
    ("BAB2065 (scFv) scFv: GVQLVQSGAEVKKPGASVKVSCKASGYTFTKYTMHWVRQAPGQGPEWMGWINGGSGDTKYSRKFQGRVTITKDTSASAAYMELSSLGSEDTALYYCARATYDPLTGYSFDGFDIWGQGTMVTVSSGGGGSGGGGSGGGGSSELTQPASVSGSPGQSITISCTGTSSDVGGYNYVSWYQQHPGKAPKLMIYEGSKRPSGVSNRFSGSKSGNTASLTISGLQAEDEADYYCSSYTTRSTRVFGGGTKLTVLG", "binds"),
    ("BAB2034 (scFv) scFv: QVQLQQSGPGLVKPSQTLSLTCAISGDSVSSNSAAWNWIRQSPSRGLEWLGRTYYRSKWYNDYAVSVKSRITINPDTSKNQFSLQLNSVTPEDTAVYYCAREGAHYDILTGHNYYHYGMDVWGQGTMVTVSSGGGGSGGGGSGGGGSQSVLTQPPSASGSPGQSVTISCTGTSSDVGGYNYVSWYQQHPGKAPKFMIYDVSKRPSGVSNRFSGSKSGNTASLTISGVQAEDEADYYCSSYTSASTVIFGGGTKLTVLG", "binds"),
]
